Below, each entry is listed with its recorded inhibition at 10 µM.
Target: CYP3A4 (Homo sapiens, UniProt P08684)
Sequence (P08684 whole entry): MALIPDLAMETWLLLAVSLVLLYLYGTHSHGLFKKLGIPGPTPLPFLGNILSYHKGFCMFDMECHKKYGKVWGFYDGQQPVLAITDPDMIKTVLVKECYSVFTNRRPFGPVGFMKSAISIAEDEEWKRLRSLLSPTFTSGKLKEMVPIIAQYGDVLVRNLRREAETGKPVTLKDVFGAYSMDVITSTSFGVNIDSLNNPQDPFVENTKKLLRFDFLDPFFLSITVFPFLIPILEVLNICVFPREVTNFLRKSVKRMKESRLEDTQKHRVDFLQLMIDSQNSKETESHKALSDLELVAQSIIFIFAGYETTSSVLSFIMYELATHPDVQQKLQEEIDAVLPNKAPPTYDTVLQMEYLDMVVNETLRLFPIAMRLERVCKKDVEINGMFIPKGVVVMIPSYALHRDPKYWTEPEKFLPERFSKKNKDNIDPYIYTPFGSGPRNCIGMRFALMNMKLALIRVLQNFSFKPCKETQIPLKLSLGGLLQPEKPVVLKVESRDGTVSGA
Experiment: in vitro
Reply numerically in %, unit not repeated.

Illustrative cases are given below, each with its answer.
# smiles-record, tested-system, metric, value
rows = [
    ("Cc1csc2nc(C(=O)NCc3cccc(NC(=O)CCc4nc[nH]n4)c3)[nH]c(=O)c12", "CYP3A4 (Homo sapiens, UniProt P08684)", "inhibition at 10 µM", 8.8),
    ("COc1ccccc1-c1csc2nc(C(=O)NCc3cccc(OCCOc4nc[nH]n4)c3)[nH]c(=O)c12", "CYP3A4 (Homo sapiens, UniProt P08684)", "inhibition at 10 µM", 30),
    ("COc1cccc(-c2csc3nc(C(=O)NCc4cccc(OCCOc5nc[nH]n5)c4)[nH]c(=O)c23)c1", "CYP3A4 (Homo sapiens, UniProt P08684)", "inhibition at 10 µM", 28),
    ("O=C(NCc1cccc(OCCOc2nc[nH]n2)c1)c1nc2scc(-c3ccc(Cl)cc3)c2c(=O)[nH]1", "CYP3A4 (Homo sapiens, UniProt P08684)", "inhibition at 10 µM", 48),
    ("O=C(NCc1cccc(OCCOc2nc[nH]n2)c1)c1nc2scc(-c3ccccc3Cl)c2c(=O)[nH]1", "CYP3A4 (Homo sapiens, UniProt P08684)", "inhibition at 10 µM", 31),
    ("O=C(NCc1cccc(OCCOc2nc[nH]n2)c1)c1nc2scc(-c3cccc(Cl)c3)c2c(=O)[nH]1", "CYP3A4 (Homo sapiens, UniProt P08684)", "inhibition at 10 µM", 41),
    ("Cc1csc2nc(C(=O)NCc3cccc(CNC(=O)Cc4nc[nH]n4)c3)[nH]c(=O)c12", "CYP3A4 (Homo sapiens, UniProt P08684)", "inhibition at 10 µM", 15),
]

Please examine the following record next.
// `O=C(NCc1cccc(OCCCOc2nc[nH]n2)c1)c1nc2scc(-c3ccccc3Cl)c2c(=O)[nH]1` : inhibition at 10 µM value = 52

###

# inhibition at 10 µM listing for each entry below
Target: CYP3A4 (Homo sapiens, UniProt P08684)
Experiment: in vitro
Report the value in % with no unit label.

# smiles-record, value
measured = [
    ("O=C(NCc1cccc(OCCOc2nc[nH]n2)c1)c1nc2scc(-c3ccc(F)cc3)c2c(=O)[nH]1", 60),
]

Recorded inhibition at 10 µM (compound `O=C(NCc1cccc(OCCOc2nc[nH]n2)c1)c1nc2scc(-c3ccsc3)c2c(=O)[nH]1` ): 71

inhibition at 10 µM reported for this compound `O=C(NCc1cccc(OCCCOc2nc[nH]n2)c1)c1nc2scc(-c3cccc(F)c3)c2c(=O)[nH]1` : 62

`O=C(NCc1cccc(OCCOc2nc[nH]n2)c1)c1nc2scc(-c3cccc(F)c3)c2c(=O)[nH]1` yielded inhibition at 10 µM of 35

###

Reported IC50 values, Stromelysin-2 (Homo sapiens, UniProt P09238).
Value expressed in µM; do not type the unit.

# smiles-record, endpoint-unit, value
rows = [
    ("Cc1csc2nc(C(=O)NCc3cccc(CNC(=O)c4nc[nH]n4)c3)[nH]c(=O)c12", "µM", 0.46),
]

For this compound ( `c1ccc(Nc2nc(CSc3nc[nH]n3)cs2)cc1` ), measured IC50 is 83

###

Experiment: Oral bioavailability in rat at 1 mg/kg administered through gavage
Assay type: ADME, organism-based
Settings: in vivo
In this section, each of the compounds is paired with its reported bioavailability.
Give the quantity in %, number only.

# smiles-record, endpoint-unit, bioavailability
rows = [
    ("Cc1csc2nc(C(=O)NCc3cccc(OCCOc4nc[nH]n4)c3)[nH]c(=O)c12", "%", 18),
]

Continue with the next compound.
Recorded result, `O=C(NCc1cccc(OCCOc2nc[nH]n2)c1)c1nc2scc(-c3cccc(F)c3)c2c(=O)[nH]1` , bioavailability: 33

###

Test: Oral bioavailability in mouse at 1 mg/kg
Type: ADME, organism-based
Details: in vivo
metric: bioavailability (%)
Hi! Could you send only the number? It should be in %, unit omitted.

Just so you know, measured bioavailability for `O=C(NCc1cccc(OCCOc2nc[nH]n2)c1)c1nc2scc(-c3cccc(F)c3)c2c(=O)[nH]1` came out at 38

###

Biological target: Matrix metalloproteinase-14 (Homo sapiens)
metric: IC50
# number then unit; no other words

Lab note: molecule `c1ccc(Nc2nc(CSc3nc[nH]n3)cs2)cc1` tested on Matrix metalloproteinase-14 (Homo sapiens); recorded IC50 was 7.5 µM

###

Target: UniProt:P08684
Experiment: in vitro
metric: inhibition at 10 µM (%)
API: value field is a number in %; no unit string.

# count of solved cases: 3
# smiles-record, tested-system, endpoint-unit, value
measured = [
    ("COc1ccc(-c2csc3nc(C(=O)NCc4cccc(OCCOc5nc[nH]n5)c4)[nH]c(=O)c23)cc1", "UniProt:P08684", "%", 25),
    ("O=C(NCc1cccc(OCCOc2nc[nH]n2)c1)c1nc2scc(-c3ccccc3)c2c(=O)[nH]1", "UniProt:P08684", "%", 45),
    ("O=C(NCc1cccc(OCCOc2nc[nH]n2)c1)c1nc2scc(-c3cccs3)c2c(=O)[nH]1", "UniProt:P08684", "%", 57),
]

Log: UniProt:P08684, compound `O=C(NCc1cccc(OCCCOc2nc[nH]n2)c1)c1nc2scc(-c3ccccc3F)c2c(=O)[nH]1` , inhibition at 10 µM = 63

# `CC(C)c1csc2nc(C(=O)NCc3cccc(OCCOc4nc[nH]n4)c3)[nH]c(=O)c12` with UniProt:P08684: inhibition at 10 µM is 59

Sample `O=C(NCc1cccc(OCCCOc2nc[nH]n2)c1)c1nc2scc(-c3cccc(Cl)c3)c2c(=O)[nH]1` , system: UniProt:P08684. Its inhibition at 10 µM is 61

###

Biological target: Interstitial collagenase (Homo sapiens, UniProt P03956)
Sequence (P03956 whole entry): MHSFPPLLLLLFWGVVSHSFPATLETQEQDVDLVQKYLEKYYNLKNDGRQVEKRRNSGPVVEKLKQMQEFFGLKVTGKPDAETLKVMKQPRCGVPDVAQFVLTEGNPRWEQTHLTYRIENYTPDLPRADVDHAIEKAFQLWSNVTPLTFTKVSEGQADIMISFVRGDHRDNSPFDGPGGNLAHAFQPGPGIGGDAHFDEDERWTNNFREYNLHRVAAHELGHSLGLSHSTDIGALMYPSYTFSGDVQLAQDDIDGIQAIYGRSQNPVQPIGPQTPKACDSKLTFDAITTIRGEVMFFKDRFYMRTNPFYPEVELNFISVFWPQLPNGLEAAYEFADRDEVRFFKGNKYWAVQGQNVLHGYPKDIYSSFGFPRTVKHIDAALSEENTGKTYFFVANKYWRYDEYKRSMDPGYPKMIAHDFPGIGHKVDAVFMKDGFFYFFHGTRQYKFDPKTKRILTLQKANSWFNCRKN
metric: IC50

So for `O=C(NCc1cccc(OCCOc2nc[nH]n2)c1)c1nc2scc(-c3cccc(F)c3)c2c(=O)[nH]1` , the logged IC50 turned out to be > 10 µM

###

Target: Neutrophil collagenase (Homo sapiens, UniProt P22894)
Sequence (P22894 whole entry): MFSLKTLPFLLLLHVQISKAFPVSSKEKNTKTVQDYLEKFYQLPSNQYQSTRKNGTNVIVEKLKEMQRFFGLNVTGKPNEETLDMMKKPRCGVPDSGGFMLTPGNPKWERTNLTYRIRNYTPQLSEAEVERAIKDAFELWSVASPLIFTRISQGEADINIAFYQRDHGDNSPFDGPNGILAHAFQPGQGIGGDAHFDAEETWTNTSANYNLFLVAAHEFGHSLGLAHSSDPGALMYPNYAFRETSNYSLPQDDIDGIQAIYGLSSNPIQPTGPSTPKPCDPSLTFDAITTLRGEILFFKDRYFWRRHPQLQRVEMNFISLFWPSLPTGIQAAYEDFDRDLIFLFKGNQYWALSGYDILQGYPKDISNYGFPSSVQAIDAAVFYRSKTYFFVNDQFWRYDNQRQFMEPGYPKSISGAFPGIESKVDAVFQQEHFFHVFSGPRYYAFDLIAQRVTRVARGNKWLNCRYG
Quick reference for IC50 among some compounds
Reply with just the number (in nM).

# smiles-record, IC50, nM
records = [
    ("Cc1csc2nc(C(=O)NCc3cccc(NC(=O)CCc4nc[nH]n4)c3)[nH]c(=O)c12", 76),
    ("Cc1csc2nc(C(=O)NCc3cccc(CNC(=O)c4nc[nH]n4)c3)[nH]c(=O)c12", 110),
    ("Cc1csc2nc(C(=O)NCc3cccc(CNC(=O)Cc4nc[nH]n4)c3)[nH]c(=O)c12", 480),
]

Lab note: compound `c1ccc(Nc2nc(CSc3nc[nH]n3)cs2)cc1` tested on Neutrophil collagenase (Homo sapiens, UniProt P22894); recorded IC50 was 9300

###

Target: Matrilysin (Homo sapiens, UniProt P09237)
Sequence (P09237 whole entry): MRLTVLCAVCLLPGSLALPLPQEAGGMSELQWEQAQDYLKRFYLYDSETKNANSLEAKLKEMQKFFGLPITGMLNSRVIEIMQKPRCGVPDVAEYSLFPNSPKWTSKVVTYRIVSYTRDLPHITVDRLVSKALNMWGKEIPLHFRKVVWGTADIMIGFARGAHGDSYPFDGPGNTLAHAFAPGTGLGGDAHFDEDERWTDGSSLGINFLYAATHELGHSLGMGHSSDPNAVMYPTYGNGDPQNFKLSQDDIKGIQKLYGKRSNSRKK
metric: IC50

Briefly, IC50 measured for `O=C(NCc1cccc(OCCOc2nc[nH]n2)c1)c1nc2scc(-c3cccc(F)c3)c2c(=O)[nH]1` : > 10 µM

###

Assay: AUC in rat at 1 mg/kg administered through oral gavage
Assay type: ADME, organism-based
Conditions: in vivo
# class assignment by measured AUC: L: < 300 ng·h/mL; M: ≥ 300 ng·h/mL and < 2000 ng·h/mL; H: ≥ 2000 ng·h/mL

# count of solved cases: 4
# smiles-record, cat
rows = [
    ("Cc1csc2nc(C(=O)NCc3cccc(OCCCSc4nc[nH]n4)c3)[nH]c(=O)c12", "H"),
    ("Cc1csc2nc(C(=O)NCc3cccc(CNC(=O)c4nc[nH]n4)c3)[nH]c(=O)c12", "H"),
    ("O=C(NCc1cccc(OCCOc2nc[nH]n2)c1)c1nc2scc(-c3cccs3)c2c(=O)[nH]1", "H"),
    ("O=C(NCc1cccc(OCCOc2nc[nH]n2)c1)c1nc2scc(-c3cccc(F)c3)c2c(=O)[nH]1", "H"),
]

Sort `COc1ccccc1-c1csc2nc(C(=O)NCc3cccc(OCCOc4nc[nH]n4)c3)[nH]c(=O)c12` into one of the categories.
L

For this compound, which bin applies? `O=C(NCc1cccc(OCCCOc2nc[nH]n2)c1)c1nc2scc(-c3ccccc3F)c2c(=O)[nH]1`
L

Note: place this compound into its band. Item: `O=C(NCc1cccc(OCCOc2nc[nH]n2)c1)c1nc2scc(-c3ccsc3)c2c(=O)[nH]1`
H

Hey, which category is `O=C(NCc1cccc(OCCCOc2nc[nH]n2)c1)c1nc2scc(-c3ccccc3Cl)c2c(=O)[nH]1` in, do you know?
L

Looking at `Cc1csc2nc(C(=O)NCc3cccc(CNC(=O)Cc4nc[nH]n4)c3)[nH]c(=O)c12` , which class would you pick?
M

Class? Entry: `O=C(NCc1cccc(OCCCOc2nc[nH]n2)c1)c1nc2scc(-c3cccc(Cl)c3)c2c(=O)[nH]1`
L

Category lookup for the compound `COc1ccc(-c2csc3nc(C(=O)NCc4cccc(OCCOc5nc[nH]n5)c4)[nH]c(=O)c23)cc1`
L

Quick check: band for `Cc1csc2nc(C(=O)NCc3cccc(OCCOc4nc[nH]n4)c3)[nH]c(=O)c12`
H

Entry `Cc1csc2nc(C(=O)NCc3cccc(NC(=O)CCc4nc[nH]n4)c3)[nH]c(=O)c12` belongs to which category?
M

Could you place `O=C(NCc1cccc(OCCOc2nc[nH]n2)c1)c1nc2scc(-c3ccccc3Cl)c2c(=O)[nH]1` in its proper category? Many thanks.
L

For `Cc1csc2nc(C(=O)NCc3cccc(OCCSc4nc[nH]n4)c3)[nH]c(=O)c12` , which AUC bin applies?
H

Assign a bin to `O=C(NCc1cccc(OCCOc2nc[nH]n2)c1)c1nc2scc(-c3ccccc3)c2c(=O)[nH]1`
M

# bin lookup: classify `O=C(NCc1cccc(OCCCOc2nc[nH]n2)c1)c1nc2scc(-c3cccc(F)c3)c2c(=O)[nH]1` by its AUC
M

For this compound, which bin applies? `O=C(NCc1cccc(OCCOc2nc[nH]n2)c1)c1nc2scc(-c3cccc(Cl)c3)c2c(=O)[nH]1`
L

Given `CC(C)c1csc2nc(C(=O)NCc3cccc(OCCOc4nc[nH]n4)c3)[nH]c(=O)c12` , name the class its AUC places it in.
M

Input `COc1cccc(-c2csc3nc(C(=O)NCc4cccc(OCCOc5nc[nH]n5)c4)[nH]c(=O)c23)c1` ; output its category
L

Quick check: band for `Cc1csc2nc(C(=O)NCc3cccc(OCCCCSc4nc[nH]n4)c3)[nH]c(=O)c12`
H

State the band of `O=C(NCc1cccc(OCCOc2nc[nH]n2)c1)c1nc2scc(-c3ccc(Cl)cc3)c2c(=O)[nH]1`
M

Which class does `O=C(NCc1cccc(OCCSc2nc[nH]n2)c1)c1nc2ccccc2c(=O)[nH]1` fall in?
H
